- ASSAY SUMMARY: Vapour pressure by ebulliometry, ASTM-E1719
- Format: physicochemical
PARAMETER MEASURED: Vapour pressure (Pa)

O=C1CCO1 [β-propiolactone]    418 Pa

Value lookup for Vapour pressure (Pa); key = O=C1CCCO1 [γ-butyrolactone]
87 Pa

Value lookup for Vapour pressure (Pa); key = CCCCCCCC1CCCC(=O)O1 (stereo not shown) [δ-dodecalactone]
0.05 Pa

Value lookup for Vapour pressure (Pa); key = CC1CC(=O)O1 (stereo not drawn) [β-butyrolactone]
212 Pa

====

- ASSAY SUMMARY: Specific gravity by hydrometer, ASTM-D891
- Type: physicochemical
PARAMETER MEASURED: Specific gravity
API note: the answer field is a bare number with no unit suffix.

CCCCCCCC1CCCC(=O)O1 (stereo not shown)    0.962
CC1CC(=O)O1 (stereo not shown)    1.076
O=C1CCO1    1.137

Kindly review the next compound as well.
Value lookup for Specific gravity; key = O=C1CCCO1
1.136
